- Test Protocol: qHTS assay to identify small molecule agonists of the endoplasmic reticulum stress response signaling pathway - cell viability counter screen (AID 1159517); also: nearly all actives have a fitted effect of over 50% in size
- Condition Details: ESRE-bla HeLa viability, CellTiter-Glo luminescence, 5 h; series mostly up to 61 µM
Inconclusive results are not listed. Calls of active or inactive are those of the source. Calls follow the shape of the full dose curve.
Classes used: active, inactive

>>> label_class("COc1ccccc1Oc1c(NS(=O)(=O)c2ccc(C(C)(C)C)cc2)nc(-c2ncccn2)nc1OCCO")
"inactive"
>>> label_class("Oc1cccc(Nc2ccccc2)c1")
"inactive"
>>> label_class("CCCCCC[C@@H](O)C/C=C\\CCCCCCCC(=O)OCC(O)CO (stereo partly specified)")
"inactive"
>>> label_class("C/C=C(/C(=C/C)c1ccc(O)cc1)c1ccc(O)cc1")
"inactive"
>>> label_class("O=C1c2ccccc2C(=O)N1CCc1noc(-c2ccc(CN3CCCCCC3)s2)n1")
"inactive"
>>> label_class("O=c1[nH]ncc2ccccc12")
"inactive"
>>> label_class("C=C1CCC2CC1C2(C)C (stereo unspecified)")
"inactive"
>>> label_class("Nc1ncnc2c1ncn2[C@H]1CC[C@@H](CO)O1")
"inactive"
>>> label_class("O=[N+]([O-])c1cc(C2CCCCC2)c(O)c([N+](=O)[O-])c1")
"inactive"
>>> label_class("O=C1C(=O)c2ccccc2C(O)=C1C1CCC(c2ccc(Cl)cc2)CC1 (stereo unspecified)")
"inactive"
>>> label_class("CN1C(C(=O)Nc2ccccn2)=C(O)c2sccc2S1(=O)=O")
"inactive"
>>> label_class("O=C1c2ccccc2C(=O)C1c1ccc(Br)cc1")
"inactive"
>>> label_class("Cc1ccc2c(Br)cc(Br)c(O)c2n1")
"inactive"
>>> label_class("Nc1nnc(-c2ccc([N+](=O)[O-])o2)o1")
"inactive"
>>> label_class("CCOc1cccc(-n2cc(C(=O)N3CCN(c4cc(C(=O)O)c5ccccc5c4)CC3)nc2-c2ccc(C)cc2)c1")
"inactive"
>>> label_class("N#CCc1ccc(Cl)cc1Cl")
"inactive"
>>> label_class("CCCCCCCCC(CCCCCC)C(=O)O (stereo unspecified)")
"active"
>>> label_class("NCCNCCO")
"inactive"
>>> label_class("C=CC(C)(CCC=C(C)C)OC(=O)CC(C)C (stereo unspecified)")
"inactive"
>>> label_class("Cc1cc(C)c(N)cc1C")
"inactive"
>>> label_class("CCOc1ccccc1O[C@H](c1ccccc1)[C@H]1CNCCO1")
"inactive"
>>> label_class("CCCCN(CCCC)C(C(N)=O)c1ccc(OC)cc1 (stereo unspecified)")
"inactive"
>>> label_class("CN1CCCC(CC2c3ccccc3Sc3ccccc32)C1 (stereo unspecified)")
"inactive"
>>> label_class("O=[N+]([O-])c1ccc(Nc2ccc(Nc3ccccc3)c(S(=O)(=O)O)c2)c([N+](=O)[O-])c1")
"inactive"
>>> label_class("CC(=O)N/N=C/c1ccc([N+](=O)[O-])o1")
"inactive"
>>> label_class("CC(=O)OCC(=O)NCCCOc1cccc(CN2CCCCC2)c1")
"inactive"

* * *

- Measurement Target: Nuclear receptor subfamily 1 group I member 2 (Homo sapiens)
- Test Protocol: Human pregnane X receptor (PXR) small molecule agonists, qHTS assay (AID 1346982); also: nearly all actives have a fitted effect of over 35% in size
- Condition Details: PXR-Luc HepG2, CYP3A4 luciferase reporter, 24 h; series mostly up to 92.4 µM
- Description: National Center for Advancing Translational Sciences [NCATS] NIH Chemical Genomics Center [NCGC] U.S. Environmental Protection Agency [EPA] National Institutes of Environmental Health Sciences [NIEHS] National Toxicology Program [NTP] The human pregnane X receptor (hPXR) regulates the expression of several drug metabolizing enzymes and induction of these proteins is a major mechanism for developing drug resistance in cancer. […]
Records with an inconclusive call do not appear. Activity calls are given as the source filed them. The call rests on the fitted dose curve; in most records, active means well fitted activation curve with a large enough effect in the repeat runs; inconclusive means weak or mixed curves; inactive means no such curve, though single readings can be large or run the other way.
Classes used: active, inactive

>>> label_class("CCOC(=O)c1ccc(OCCN2C[C@H](O)[C@@H](O)[C@H](O)[C@H]2CO)cc1")
"inactive"
>>> label_class("COC(=O)CS")
"inactive"
>>> label_class("C=CC(C)(CCC=C(C)C)OC(=O)CC(C)C (stereo not given)")
"inactive"
>>> label_class("O=c1cc(-c2ccccc2)oc2cc(O)cc(O)c12")
"active"
>>> label_class("CCCCCCC(C)(C)C(=O)O")
"active"
>>> label_class("Cc1c(C)c2c(c(C)c1OC(=O)CCC(=O)OCCO)CC[C@@](C)(CCC[C@H](C)CCC[C@H](C)CCCC(C)C)O2")
"inactive"
>>> label_class("CN1C(=O)OC(C)(C)C1=O")
"active"
>>> label_class("CC(O)c1ccccc1 (stereo not given)")
"inactive"
>>> label_class("CCCC(C(=O)OCCN(CC)CC)(c1ccccc1)c1ccccc1")
"active"
>>> label_class("CCOC(=O)[C@H](CCc1ccccc1)N[C@@H](C)C(=O)N(CC(=O)O)C1Cc2ccccc2C1")
"active"
>>> label_class("CC(=O)Nc1ccc(C)cc1C")
"inactive"
>>> label_class("Nc1cccc2c1CN(C1CCC(=O)NC1=O)C2=O (stereo not given)")
"inactive"
>>> label_class("OC[C@H]1O[C@@H](n2cnc3c(=S)nc[nH]c32)[C@H](O)[C@@H]1O")
"active"
>>> label_class("CN(C)CCC=C1c2ccccc2C=Cc2ccccc21")
"inactive"
>>> label_class("O=C1Cc2ccccc2N1c1c(Cl)cccc1Cl")
"active"
>>> label_class("CC1=C(Br)C(=O)C(Br)=C/C1=C(/c1ccccc1S(=O)(=O)O)c1cc(Br)c(O)c(Br)c1C")
"inactive"
>>> label_class("COc1ccc(OC(=O)N(CC(=O)O)Cc2ccc(OCCc3nc(-c4ccccc4)oc3C)cc2)cc1")
"inactive"
>>> label_class("N#[N+]c1ccc2c(S(=O)(=O)[O-])cccc2c1O")
"inactive"
>>> label_class("CC(=O)Oc1ccc([N+](=O)[O-])cc1CCl")
"inactive"
>>> label_class("Cc1ccco1")
"inactive"
>>> label_class("C1COC1")
"inactive"
>>> label_class("CC(C)(O)c1ccc(CNC(=O)c2cccnc2Oc2ccc3nonc3c2)cc1")
"inactive"
>>> label_class("CCOc1ccccc1O[C@H](c1ccccc1)[C@H]1CNCCO1")
"inactive"
>>> label_class("CCCCCCCC/C=C\\CCCCCCCCO")
"active"
>>> label_class("O=C(Nc1cccc2c(=O)cc(-c3nn[nH]n3)oc12)c1ccc(OCCCCc2ccccc2)cc1")
"inactive"
